Where do the numbers come from? From PubChem BioAssay (NCATS).

system: PAD; test: qHTS profiling for inhibitors of Plasmodium falciparum proliferation (AID 504749); note: nearly all actives have a fitted effect of over 60% in size; conditions: P. falciparum in erythrocytes, SYBR Green DNA, 72 h; series mostly up to 28.7 µM
Records with an inconclusive call do not appear. Calls of active or inactive are those of the source. Calls come from the whole dose curve; as a rule, active = well fitted inhibition curve with a large enough effect; inconclusive = small, poorly fitted or top-dose-only effect; inactive = flat fitted curve, though single readings scatter.
Endpoint Name: outcome

>>> value_observed("O=C1CN(/N=C/c2ccc(-c3ccc([N+](=O)[O-])cc3)o2)C(=O)N1")
"inactive"
>>> value_observed("CCCOC(=O)c1ccc(O)cc1")
"inactive"
>>> value_observed("O=C(O)COc1ccc(C(=O)c2cccs2)c(Cl)c1Cl")
"inactive"
>>> value_observed("Cc1ccc(C(=O)c2ccc(CC(=O)O)n2C)cc1")
"inactive"
>>> value_observed("O=C(OCc1ccccc1)c1ccccc1")
"inactive"
>>> value_observed("CN1[C@@H]2CC[C@H]1CC(OC(=O)C(CO)c1ccccc1)C2 (some centres undefined)")
"inactive"
>>> value_observed("CCC1C(=O)OCC1Cc1cncn1C (centres undefined)")
"inactive"
>>> value_observed("O=C(O)c1cc(O)c(O)c(O)c1")
"inactive"
>>> value_observed("Cc1[nH]cnc1CN1CCc2c(c3ccccc3n2C)C1=O")
"inactive"
